# protocol-summary: Biodistribution studies
# Assay type: in vivo, mice
# cond: athymic nude Foxn1^nu, mouse, in vivo, iv, 1 MBq, total radioactivity, Uptake [% IA/g] Adrenal
*1 amine or outer side, *2 acyl side, *3 side chain or, on linkers, in order; H or OH if unused. Where a SMILES comes first, the peptide text is derived from it. Bridges are numbered along the chain shown (N, C = ends). [ ]: non-standard residue; d: D form. The star is where a group is joined. NODAGA = O=C(O)CN1CCN(CC(=O)O)CCN(C(CCC(=O)*)C(=O)O)CC1; X1 = NC(=O)Nc1ccc(CC(N[*:1])C(=O)[*:2])cc1; Phe(4-Cl) = N[CH](Cc1ccc(Cl)cc1)C(=O)O
recorded-endpoint: tissue uptake at 4 h
Form entry: enter the amount, then its unit.

For the compound CC(O)C1NC(=O)C(CCCCN)NC(=O)C(Cc2ccc(NC(N)=O)cc2)NC(=O)C(Cc2ccc(O)cc2)NC(=O)C(NC(=O)C(Cc2ccc(Cl)cc2)NC(=O)CCC(C(=O)O)N2CCN(CC(=O)O)CCN(CC(=O)O)CC2)CSSCC(C(=O)NC(Cc2ccc(O)cc2)C(N)=O)NC1=O (stereo not shown) [[^61Cu]Cu-NODAGA-LM3, metal not drawn] ({NODAGA}-[Phe(4-Cl)]CY[X1]KTCY-NH2; disulfide 2-7; configuration not given here) , what tissue uptake at 4 h is on record? 0.61 %ID/g

###

# protocol-summary: in vivo
# cond: female, athymic nude Foxn1^nu, mouse, iv, 0.15 MBq, total radioactivity, Uptake Spleen
*1 amine or outer side, *2 acyl side, *3 side chain or, on linkers, in order; H or OH if unused. Where a SMILES comes first, the peptide text is derived from it. Bridges are numbered along the chain shown (N, C = ends). [ ]: non-standard residue; d: D form. The star is where a group is joined. NODAGA = O=C(O)CN1CCN(CC(=O)O)CCN(C(CCC(=O)*)C(=O)O)CC1; X1 = NC(=O)Nc1ccc(CC(N[*:1])C(=O)[*:2])cc1; Phe(4-Cl) = N[CH](Cc1ccc(Cl)cc1)C(=O)O
recorded-endpoint: tissue uptake at 4 h (%ID/g)
Please state the figure in %ID/g; there is no need to write the unit.

For the compound CC(O)C1NC(=O)C(CCCCN)NC(=O)C(Cc2ccc(NC(N)=O)cc2)NC(=O)C(Cc2ccc(O)cc2)NC(=O)C(NC(=O)C(Cc2ccc(Cl)cc2)NC(=O)CCC(C(=O)O)N2CCN(CC(=O)O)CCN(CC(=O)O)CC2)CSSCC(C(=O)NC(Cc2ccc(O)cc2)C(N)=O)NC1=O (stereo not shown) [[^61Cu]Cu-NODAGA-LM3, metal not drawn] ({NODAGA}-[Phe(4-Cl)]CY[X1]KTCY-NH2; disulfide 2-7; configuration not given here) , what tissue uptake at 4 h is on record? 0.21

###

# protocol-summary: Biodistribution studies
# Format: in vivo, mice
# cond: athymic nude Foxn1^nu, mouse, in vivo, iv, 1 MBq, total radioactivity, Uptake [% IA/g] Blood
*1 amine or outer side, *2 acyl side, *3 side chain or, on linkers, in order; H or OH if unused. Where a SMILES comes first, the peptide text is derived from it. Bridges are numbered along the chain shown (N, C = ends). [ ]: non-standard residue; d: D form. The star is where a group is joined. NODAGA = O=C(O)CN1CCN(CC(=O)O)CCN(C(CCC(=O)*)C(=O)O)CC1; X1 = NC(=O)Nc1ccc(CC(N[*:1])C(=O)[*:2])cc1; Phe(4-Cl) = N[CH](Cc1ccc(Cl)cc1)C(=O)O
recorded-endpoint: tissue uptake at 4 h (%ID/g)
Please state the figure in %ID/g; there is no need to write the unit.

For the compound CC(O)C1NC(=O)C(CCCCN)NC(=O)C(Cc2ccc(NC(N)=O)cc2)NC(=O)C(Cc2ccc(O)cc2)NC(=O)C(NC(=O)C(Cc2ccc(Cl)cc2)NC(=O)CCC(C(=O)O)N2CCN(CC(=O)O)CCN(CC(=O)O)CC2)CSSCC(C(=O)NC(Cc2ccc(O)cc2)C(N)=O)NC1=O (stereo not shown) [[^61Cu]Cu-NODAGA-LM3, metal not drawn] ({NODAGA}-[Phe(4-Cl)]CY[X1]KTCY-NH2; disulfide 2-7; configuration not given here) , what tissue uptake at 4 h is on record? 0.11

Taken from patent US20260151517A1.
